# protocol text: collision cross section (TIMS, N2 drift gas) of the primary ion; higher = larger gas-phase ion size
# reported conditions: ionization mode: ESI+; ion species: [M+H]+

[
  {
    "molecule": "O=c1c(-c2ccc(O)cc2)coc2cc(O)cc(O)c12",
    "collision cross section": "160.2 Å²"
  },
  {
    "molecule": "CN1CCCC1c1cccnc1 (stereo not given)",
    "collision cross section": "135.54 Å²"
  },
  {
    "molecule": "O=C(NC(=O)c1c(F)cccc1F)Nc1ccc(Cl)cc1",
    "collision cross section": "163.34 Å²"
  },
  {
    "molecule": "CO/N=C(/C(=O)O)c1ccccc1CO/N=C(\\C)c1cccc(C(F)(F)F)c1",
    "collision cross section": "186.57 Å²"
  },
  {
    "molecule": "CCNc1nc(N)nc(Cl)n1",
    "collision cross section": "132.48 Å²"
  },
  {
    "molecule": "CCCN(CCOc1c(Cl)cc(Cl)cc1Cl)C(=O)NC=O",
    "collision cross section": "174.76 Å²"
  },
  {
    "molecule": "O=C(NCc1ncc(C(F)(F)F)cc1Cl)c1c(Cl)cccc1Cl [Fluopicolide]",
    "collision cross section": "176.08 Å²"
  },
  {
    "molecule": "CCCOP(=O)(OCCC)OCCC [Tripropyl phosphate]",
    "collision cross section": "149 Å²"
  },
  {
    "molecule": "Cc1c(N)c(=O)n(-c2ccccc2)n1C [4-Aminoantipyrine]",
    "collision cross section": "142.4 Å²"
  },
  {
    "molecule": "CC(=O)CCc1ccc(O)cc1 [4-(4-Hydroxyphenyl)butan-2-one]",
    "collision cross section": "132.84 Å²"
  },
  {
    "molecule": "CC(C1CC1)C(O)(Cn1cncn1)c1ccc(Cl)cc1 (stereo not given) [Cyproconazole_1]",
    "collision cross section": "170.22 Å²"
  },
  {
    "molecule": "CCCCCCOC(=O)c1ccccc1C(=O)OCCCCCC [Di-n-hexyl phthalate]",
    "collision cross section": "195.44 Å²"
  },
  {
    "molecule": "CN1CCN(C2=Nc3cc(Cl)ccc3Nc3ccccc32)CC1",
    "collision cross section": "179.65 Å²"
  },
  {
    "molecule": "CC(Oc1ccc(Oc2nc3ccc(Cl)cc3o2)cc1)C(=O)O (stereo not given)",
    "collision cross section": "181.01 Å²"
  },
  {
    "molecule": "CCOC(=O)C1=C(C)NC(C)=C(C(=O)OC)C1c1cccc([N+](=O)[O-])c1 (stereo not given)",
    "collision cross section": "184.47 Å²"
  },
  {
    "molecule": "c1ccc2c(c1)[nH]c1cnccc12",
    "collision cross section": "132.84 Å²"
  },
  {
    "molecule": "NC1=NCCN1Cc1ccc(Cl)nc1",
    "collision cross section": "148.89 Å²"
  },
  {
    "molecule": "CN(C)C(=O)Nc1ccccc1",
    "collision cross section": "132.76 Å²"
  },
  {
    "molecule": "O=P(OCCCl)(OCCCl)OCCCl [Tris(2-chloroethyl)phosphate]",
    "collision cross section": "150.93 Å²"
  },
  {
    "molecule": "CCN(CC)C(=O)c1cccc(C(=O)O)c1",
    "collision cross section": "151.03 Å²"
  }
]

Cited source for all entries: the supplement of paper PMC12613149
